B1: tRNA (parent)
chain: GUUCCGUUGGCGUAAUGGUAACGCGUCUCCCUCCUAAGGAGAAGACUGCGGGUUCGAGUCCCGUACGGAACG

Variants of: B1
method description: yeast fitness relative to wild type (ratio to wild type); higher = fitter; tRNA-Arg(CCU), competitive growth, 37 C, YPD
This sample holds only a part of the variants without activity.
property name: yeast fitness

>>> val("G6C A42C C49U C55U")
0.578
>>> val("C27U C46U A57G")
0.679
>>> val("U19C U35G A43G")
0.598
>>> val("U8A C22G C46G C66U")
0.567
>>> val("A45U A69C")
1.04
>>> val("C5A C31G A40G")
0.529
>>> val("A14G G23C A70U")
0.564
>>> val("G6A C31G A40U")
0.688
>>> val("C29A G41A A43C")
0.55
>>> val("A14G G38A")
0.799
>>> val("U3C G56A U59C")
0.768
>>> val("C5A G67C")
1.03
>>> val("U3C C31U G52A")
0.671
>>> val("A20G C24G C66U")
0.527
>>> val("C4G C27G C46G U54C")
0.64
>>> val("A45G A70C")
0.989
>>> val("A45G C62G")
0.832
>>> val("U3G A15C")
0.511
>>> val("C11A G12A G25A")
0.604
